The molecules listed here are annotated with their IC50.
tgt: UniProt P31649
Sequence (P31649 whole entry): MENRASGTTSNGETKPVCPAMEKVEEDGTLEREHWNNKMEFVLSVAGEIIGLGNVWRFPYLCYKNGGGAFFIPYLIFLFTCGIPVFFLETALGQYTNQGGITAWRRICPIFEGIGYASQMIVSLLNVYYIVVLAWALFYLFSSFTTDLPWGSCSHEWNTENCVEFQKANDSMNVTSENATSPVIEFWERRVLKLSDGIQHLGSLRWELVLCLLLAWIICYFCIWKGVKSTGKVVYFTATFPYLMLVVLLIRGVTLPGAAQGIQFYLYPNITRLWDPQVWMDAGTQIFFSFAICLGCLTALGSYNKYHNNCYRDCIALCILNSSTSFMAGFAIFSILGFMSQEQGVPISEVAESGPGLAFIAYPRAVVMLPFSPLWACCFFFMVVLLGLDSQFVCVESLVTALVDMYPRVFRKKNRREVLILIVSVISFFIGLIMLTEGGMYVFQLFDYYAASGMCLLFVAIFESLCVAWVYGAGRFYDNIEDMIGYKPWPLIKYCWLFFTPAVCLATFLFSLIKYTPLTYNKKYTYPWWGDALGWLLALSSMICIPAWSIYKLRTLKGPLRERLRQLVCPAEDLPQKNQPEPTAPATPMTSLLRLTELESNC
assay-explanation: Inhibition of GAT3 in mouse D8 cells assessed as [3H]GABA transport by liquid scintillation counting
Give just the numeric value; µM need not be written.

Below: 2 molecules and their reported IC50.
sample_smiles=O=C(O)C[C@@H]1CCCN1CCC=C(c1ccccc1)c1ccccc1 tgt="UniProt P31649" measured_value=64.8
sample_smiles=O=C(O)[C@@H]1CCCN1CCC=C(c1ccccc1)c1ccccc1 tgt="UniProt P31649" measured_value=309

Next:
Ask: Give its IC50 value. Item: `Cc1ccsc1C(=CCCN1CCC[C@H]1CC(=O)O)c1sccc1C`
Result: 26.6

* * *

tgt: GABA transporter 3 (Mus musculus)
assay-explanation: Inhibition of GAT3 in mouse D8 cells assessed as [3H]GABA transport by liquid scintillation counting
The compounds listed here are annotated with their IC50.

Below: 2 compounds and their reported IC50.
sample_smiles=Cc1ccsc1C(=CCCN1C[C@H](O)C[C@H]1CC(=O)O)c1sccc1C assay_endpoint=IC50 measured_value="> 100 µM"
sample_smiles=O=C(O)C[C@@H]1C[C@@H](O)CN1CCC=C(c1ccccc1)c1ccccc1 assay_endpoint=IC50 measured_value="> 100 µM"

Next:
Ask: Find IC50 (GABA transporter 3 (Mus musculus)) for the entry `O=C(O)[C@@H]1C[C@@H](O)CN1CCC=C(c1ccccc1)c1ccccc1`
Result: > 100 µM
